test system: OVCAR-4 ovarian; test: NCI-60 one-dose screen, 48 h; details: 10 µM unless noted
About 83,000 compounds went through this panel and 20% of them were active in at least one assay; those are over-represented in the sample as a whole. Activity calls are given as the source filed them. How the source made its calls: active means growth percent below 10; inactive means the rest.
Select the correct class. Options are 1 (active), 0 (inactive) and nothing else.

CN(C)CCCNC(=O)c1cc(NC(=O)c2cc(NC(=O)c3ccc(/C=C/c4ccccc4)cc3)cn2C)cn1C = 0
CCCn1cc(-c2nc(Nc3ccc(C(=O)NCCCCNc4cccc5c4C(=O)N(C4CCC(=O)NC4=O)C5=O)cc3)nc3[nH]ccc23)cn1 (stereo not drawn) = 1

Consider now this further molecule.
Please let me know the test result on file for O=C(/C=C/c1cccc(OCc2ccccc2)c1)c1nc2ccccc2[nH]1 . 0
